Reported IC80 (µg/ml) with constrains values for the following binders.
target: HIV Env, isolate CAAN5342.A2 (HIV); assay: cell-based or functional assay
RECORDED METRIC: IC80 (µg/ml) with constrains

| BINDER | RESULT |
| --- | --- |
| PGDM1400 (antibody, V domains shown) VH: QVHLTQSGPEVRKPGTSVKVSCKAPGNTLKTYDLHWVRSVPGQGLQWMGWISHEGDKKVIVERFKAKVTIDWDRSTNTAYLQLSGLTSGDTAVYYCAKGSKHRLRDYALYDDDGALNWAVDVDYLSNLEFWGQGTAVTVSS VL: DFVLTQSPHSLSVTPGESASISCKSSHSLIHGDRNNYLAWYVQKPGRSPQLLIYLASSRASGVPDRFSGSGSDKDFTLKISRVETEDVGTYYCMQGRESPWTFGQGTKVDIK | > 100 µg/mL |
| ePGDM5 (antibody, V domains shown) VH: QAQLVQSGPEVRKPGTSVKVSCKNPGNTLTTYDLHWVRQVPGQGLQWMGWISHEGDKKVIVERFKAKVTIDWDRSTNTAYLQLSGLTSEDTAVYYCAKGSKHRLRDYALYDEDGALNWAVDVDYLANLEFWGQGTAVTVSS VL: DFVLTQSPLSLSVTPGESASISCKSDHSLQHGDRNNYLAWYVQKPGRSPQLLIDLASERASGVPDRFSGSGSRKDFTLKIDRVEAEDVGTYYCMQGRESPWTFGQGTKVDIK | > 100 µg/mL |
| ePGDM9 (antibody, V domains shown) VH: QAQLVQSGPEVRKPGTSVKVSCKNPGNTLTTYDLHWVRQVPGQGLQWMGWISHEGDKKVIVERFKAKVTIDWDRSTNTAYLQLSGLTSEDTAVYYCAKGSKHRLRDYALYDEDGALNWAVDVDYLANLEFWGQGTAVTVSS VL: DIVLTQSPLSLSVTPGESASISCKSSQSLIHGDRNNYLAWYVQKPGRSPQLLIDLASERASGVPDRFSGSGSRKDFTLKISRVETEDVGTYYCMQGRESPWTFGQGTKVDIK | 70.1 µg/mL |
| ePGDM13 (antibody, V domains shown) VH: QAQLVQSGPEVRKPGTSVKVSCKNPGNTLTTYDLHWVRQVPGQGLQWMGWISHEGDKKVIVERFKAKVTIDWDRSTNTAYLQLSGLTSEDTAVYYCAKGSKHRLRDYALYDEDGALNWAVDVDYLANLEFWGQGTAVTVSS VL: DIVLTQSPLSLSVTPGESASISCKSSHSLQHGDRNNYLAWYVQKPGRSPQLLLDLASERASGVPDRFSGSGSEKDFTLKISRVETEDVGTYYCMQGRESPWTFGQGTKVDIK | > 100 µg/mL |
